Source: the supplement of paper PMC6555819

The entries below come with measured PBM binding z-score values attached.
Test system: LXRb:RXRa (NR concentration 270 nM, RXRa partner concentration 90 nM)
Protocol description: PBM binding z-score (relative to random genomic background probes); higher = stronger binding; sequences stand for … in GC…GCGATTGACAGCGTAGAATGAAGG

response.value for CGAACTAGGTCAAAGGACAGAGAAAGGCGACGTA (field: PBM binding z-score) = 1.9

response.value for ATATGTAGGTTAGGGTCATTCAGAAAGTAGGGAA (field: PBM binding z-score) = 4.66

response.value for CCGAGTAGTTTACGAGGGGGCATTCAGTGCGAAT (field: PBM binding z-score) = 4.15

response.value for AGACAAAGTTCAGGACGAGGTAACGTAAAGCACG (field: PBM binding z-score) = 1.95

response.value for CGTCAAAGTTCAACTAAGGTAACGTATAGCACGC (field: PBM binding z-score) = 4.52

response.value for ACTAACAGGCCAAGGGTCACTCAAGATTAGTCCG (field: PBM binding z-score) = 3.06

----------
Test system: VDR homodimer (NR concentration 270 nM)
Protocol description: PBM binding z-score (relative to random genomic background probes); higher = stronger binding; sequences stand for … in GC…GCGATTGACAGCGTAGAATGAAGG
Measured parameter: PBM binding z-score
Reply briefly: the number, and no unit.

// below: answered sequences
>>> measured_number("CGCACTAGGTCATTGACAGGACAGTGAATAGTAA")
1.54
>>> measured_number("CTATGTAGGTTAAGGGCGTCATTCAGTTTGAAAG")
0.4
>>> measured_number("CCTTACGGGTCACTCTAGGTTATAGCATCGGAGT")
1.39
>>> measured_number("TCTCGGAGGACACGAAGGTCAGCGCTTTCCAGAG")
1.46
>>> measured_number("CGGACTGGGGCAAAGGTTACCATACTCAGTACGA")
0.18
>>> measured_number("TGTCAAAGTTCTAAGGTAACGTAAGTATCCACAC")
-0.114
>>> measured_number("ATATGTAGGATAGGGTCATTCAGAAAGTAGGGAA")
3.42
>>> measured_number("CTATGTAGGTTAAGAGGGTCATTCAGTTTGAAAG")
3.39
>>> measured_number("CCAGACAGGTGAAAGGTAACTCCGTCTGGTACGC")
-0.193
>>> measured_number("ATCGAAACGTCGACGAGGTGAGTATACACCGTTT")
-0.146

response.value for CGAACTAGGTCACTAGGACAGTGAAGAGGTTGGA (field: PBM binding z-score) = 0.00359

response.value for CAAAGTAGGTCACCGGAAGGTCAAAGTCCGCATG (field: PBM binding z-score) = 3.66

----------
Test system: PPARg homodimer (NR concentration 180 nM)
Protocol description: PBM binding z-score (relative to random genomic background probes); higher = stronger binding; sequences stand for … in GC…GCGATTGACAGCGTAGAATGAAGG
Would you mind classing the entries by PBM binding z-score? Ranges: L = under 1, M = from 1 up to 3, H = 3 and over

Below are worked cases with known answers.
>>> discrete_label("ATCGAAAGGTCGAAGGTCAGTATACCCACCCGAA")
"M"
>>> discrete_label("CTCGAAAGGTCGGTTGAGGTCAGTATACGGATAA")
"H"
>>> discrete_label("CGTCCGAGGTCAATGCTAGGTCAGTGAAAGCATT")
"H"
>>> discrete_label("TCGAGTAGGTGACGGGGGCATTCAGGGATGAAGA")
"M"
>>> discrete_label("CGAACTAGGTCAAAGTACAGTGAAAGGCGACGTA")
"M"

Which PBM binding z-score category applies to CAACCTAGGTCACGAAAGGTCAAAGTCGAATGAC here?
H

Which PBM binding z-score category applies to ATATGTAGGTGAGGGTCATTCAGAAAGTAGGGAA here?
M

Which PBM binding z-score category applies to CGAACTAGGTCAAAGGAAAGTGAAAGGCGACGTA here?
L

Which PBM binding z-score category applies to CGAACTAAGTCATTGACAGGACAGTGAATAGTAA here?
L

Which PBM binding z-score category applies to CGAACTAGGTCATCAGGACAGTGAAGAGGTTGGA here?
M

Which PBM binding z-score category applies to TCGAGTAGGTAACGGGGGCATTCAGGGATGAAGA here?
M

Which PBM binding z-score category applies to TGGCCTAGGTCATGGGCCAGTATACCACGCGAAC here?
L

Which PBM binding z-score category applies to ATCGAAAGGTCGAAGGAGAGTATACCCACCCGAA here?
M

Which PBM binding z-score category applies to CCGACTGGGGCAAAGGTCACCATACTCAGTACGA here?
H

Which PBM binding z-score category applies to ATATGTAGGTTCGGGTCATTCAGAAAGTAGGGAA here?
M

Which PBM binding z-score category applies to TCGAGTGGGTTACGGGGGCATTCAGGGATGAAGA here?
M

----------
The entries below come with measured PBM binding z-score values attached.
Tested on: RARg homodimer (NR concentration 270 nM)
Protocol description: PBM binding z-score (relative to random genomic background probes); higher = stronger binding; sequences stand for … in GC…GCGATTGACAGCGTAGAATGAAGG
Reply briefly: the number, and no unit.

// below: answered sequences
>>> measured_number("CCTACTGGGCCAAGGTCATAGATCAGTCAAAGCA")
2.88
>>> measured_number("CCGAGTAGGTTACGGGGGGGCATTCAGTGCGAAT")
4.19
>>> measured_number("AGTCAAAGTTCAGCACGAGGTAACGTAAAGCACG")
5.78

response.value for TAGCCAAGGTCAGATCGGGCCAGTATACGCTATA (field: PBM binding z-score) = 5.1

response.value for CTATCTAGGTTAAGGGGGTCATTCAGTTTGAAAG (field: PBM binding z-score) = 4.36

response.value for CGAACCAGGTCAAAGGACAGTGAAAGGCGACGTA (field: PBM binding z-score) = 4.33

----------
The entries below come with measured PBM binding z-score values attached.
System: PXR homodimer (NR concentration 270 nM)
Protocol description: PBM binding z-score (relative to random genomic background probes); higher = stronger binding; sequences stand for … in GC…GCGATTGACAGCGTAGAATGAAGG
Reply briefly: the number, and no unit.

>>> measured_number("GACACAGGGTCAGCTAGAGGCCAGAGTATGGAAA")
-0.286
>>> measured_number("ATATGTAGCTTAAGGGTCATTCAGGTTGGTTCGC")
1.67
>>> measured_number("ACTAGCAGGTCAAGGGTCACTCAAGATTAGTCCG")
0.469
>>> measured_number("TCGAGTAGGTTACGGGGGCATTCTGGGATGAAGA")
1.48
>>> measured_number("CGAACTAGGTCACCAGTACAGTGAAGAGGTTGGA")
-0.139

Could you now look at the following sequence, please?
response.value for GATACAGGGTCAACTAGAGGCCAGAGTATGGAAA (field: PBM binding z-score) = 0.995

----------
System: LXRa homodimer (NR concentration 270 nM)
Protocol description: PBM binding z-score (relative to random genomic background probes); higher = stronger binding; sequences stand for … in GC…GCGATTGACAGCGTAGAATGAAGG
Assign satisfied whenever PBM binding z-score does not fall below 0.8; assign not satisfied whenever it does.

Below are worked cases with known answers.
>>> discrete_label("ACTAGTTGGTCACCTGAGGTCACACACAATTCGG")
"satisfied"
>>> discrete_label("CCTACGGGGCCAAAGGTCATTGATTCCAATGCTC")
"satisfied"

Next up:
Is it the case that TCTAGTTGGTCACGGGGGTCACACACGACGGGTA has PBM binding z-score reaching or exceeding 0.8?
satisfied

----------
Test system: VDR homodimer (NR concentration 270 nM)
Protocol description: PBM binding z-score (relative to random genomic background probes); higher = stronger binding; sequences stand for … in GC…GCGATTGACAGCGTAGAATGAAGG
Measured parameter: PBM binding z-score
Reply briefly: the number, and no unit.

// below: answered sequences
>>> measured_number("ATCTCTAGGTCAAAGTTCAGTGAATCCCGAGGAT")
3.19
>>> measured_number("TCGAGTAGGTTACGGGGGCATTCCGGGATGAAGA")
2.67
>>> measured_number("GCTGCTAGGTCGACTGATGGTCAGCTAAAGCTCG")
-1
>>> measured_number("TGACTGAGGTTAAAGATCAGGGAACGTGGCGTCG")
0.537
>>> measured_number("TCTTATAGATCAATAGAGGTTAAGAAAGTGCGCT")
0.336

Could you now look at the following sequence, please?
Query TAGAGTAGGTTACGGGGGCATTCAGGGATGAAGA on VDR homodimer (NR concentration 270 nM); PBM binding z-score returned: 3.81
